Would you kindly list pIC50 for each of these compounds?
- target: EBP (Homo sapiens)
- Construct: HEK293T cells were utilized as the source of EBP enzyme; endogenous in cells
- protocol text: EBP Functional Assay (EBP immunoaffinity LC-MS assay)
- condition description: EBP enzyme from HEK293T cells; 30 min with inhibitor, then zymosterol-d5, 37° C., 4 h; percent conversion to dehydrolathosterol-d5 by LC-APCI MRM MS
pIC50: −log10 of the molar value.

Past entries and their recorded results:
compound	target	result
Cc1cc(C(F)(F)F)nc(C)c1S(=O)(=O)N1CC2(CN(C3CC4(COC4)C3)C2)C1	EBP (Homo sapiens)	6.60 to 7.00
O=S(=O)(c1cc(C(F)(F)F)nn1CC1CC1)N1CC2(CN(C3CCOCC3)C2)C1	EBP (Homo sapiens)	5.40 to 6.60
C=Cc1nc(C(F)(F)F)ccc1S(=O)(=O)N1CC2(CN(C3CCOCC3)C2)C1	EBP (Homo sapiens)	> 7.00
Cc1nc(C(F)(F)F)ccc1S(=O)(=O)N1CC2(CN(C3(C)CCOCC3)C2)C1	EBP (Homo sapiens)	> 7.00
COc1ccc(S(=O)(=O)N2CC3(CN(C4CCOCC4)C3)C2)c(Cl)n1	EBP (Homo sapiens)	> 7.00
Cc1nc(C(F)(F)F)ccc1S(=O)(=O)N1CC2(CN(CC[C@@H]3COC(C)(C)O3)C2)C1 (racemic)	EBP (Homo sapiens)	6.60 to 7.00
COC(C)(C)CN1[C@@H]2CC[C@H]1CC1(C2)CN(S(=O)(=O)c2ccc(OC(F)F)cc2)C1	EBP (Homo sapiens)	5.40 to 6.60
COC(CN1CC2(C1)CN(S(=O)(=O)c1ccc(C(F)(F)F)nc1C)C2)C1CC1 (stereo not drawn)	EBP (Homo sapiens)	5.40 to 6.60
Cc1ccc(S(=O)(=O)N2CCC3(CCN(C4CCOCC4)C3)CC2)c(Cl)c1	EBP (Homo sapiens)	> 7.00
Cc1nc(C(F)(F)F)ccc1S(=O)(=O)N1CC2(CN(CC3(C)CCOCC3)C2)C1	EBP (Homo sapiens)	> 7.00

Give measured pIC50 for every item shown.
1. Cn1nc(C(F)(F)F)cc1S(=O)(=O)N1CC2(CN(CC3CCOC(C)(C)C3)C2)C1 (single isomer, unassigned) [Example 200]
2. Cc1nc(C(F)(F)F)ccc1S(=O)(=O)N1CC2(CN(CC3CCOC(C)(C)C3)C2)C1 (stereo not drawn)
3. O=S(=O)(c1cc(F)cc(F)c1)N1CCOC2(CCN(C3CC4(COC4)C3)C2)C1 (stereo not drawn)

1. 6.60 to 7.00
2. 6.60 to 7.00
3. 6.60 to 7.00

Provide each entry's pIC50 from the list below.
1. CCN1CC2(C1)CN(S(=O)(=O)c1ccc(C(F)(F)F)nc1C)C2
2. Cc1nc(C(C)(F)F)ccc1S(=O)(=O)N1CC2(CN(C(C)C3CCOCC3)C2)C1 (stereo not drawn)
3. Cc1nn(C)c(S(=O)(=O)N2CC3(CN(C4CCOCC4)C3)C2)c1C(F)F
4. Cc1nc(C(F)(F)F)ccc1S(=O)(=O)N1CC2(CN(CC3COC3)C2)C1
5. CCc1cc(C(F)(F)F)ncc1S(=O)(=O)N1CC2(CN(C3CCC(C)(O)CC3)C2)C1 (single isomer, unassigned) [Example 127]

1: 5.40 to 6.60; 2: 5.40 to 6.60; 3: 6.60 to 7.00; 4: 6.60 to 7.00; 5: > 7.00

Count: 4. Required value per item: pIC50.
1. Cc1nc(C(F)(F)F)ccc1S(=O)(=O)N1CC2(CN(C(C)C3(C)CCCO3)C2)C1 (mixture of isomers)
2. Cc1nc(C(F)(F)F)ccc1S(=O)(=O)N1CC2(CN(CC3COCCO3)C2)C1 (racemic)
3. Cc1nc(C(F)(F)F)ccc1S(=O)(=O)N1CC2(CN(CC3CCCO3)C2)C1 (stereo not drawn)
4. Cc1nc(C(F)(F)F)ccc1S(=O)(=O)N1CC2(CN(C3CCC(C)(O)CC3)C2)C1 (stereo not drawn) [Example 223]

["> 7.00", "5.40 to 6.60", "5.40 to 6.60", "5.40 to 6.60"]

###

- target: EBP (Homo sapiens)
- Construct: HEK293T cells were utilized as the source of EBP enzyme; endogenous in cells
- protocol text: EBP Functional Assay (EBP immunoaffinity LC-MS assay)
- condition description: EBP enzyme from HEK293T cells; 30 min with inhibitor, then zymosterol-d5, 37° C., 4 h; percent conversion to dehydrolathosterol-d5 by LC-APCI MRM MS
endpoint: IC50

molecule	IC50
Cc1nc(C(F)(F)F)ccc1S(=O)(=O)N1CC2(CN(C(C)C3(C)COC3)C2)C1 (stereo not shown)	100 to 250 nM
COc1cc(S(=O)(=O)N2CC3(CN(C4CCOCC4)C3)C2)n(C)n1	250 to 4000 nM
Cc1nc(C(F)(F)F)ccc1S(=O)(=O)N1CC2(CN(CC3CCOCC3)C2)C1	< 100 nM
Cc1nc(C(F)(F)F)ccc1S(=O)(=O)N1CC2(CN(CCCOC3CCCC3)C2)C1	< 100 nM
O=S(=O)(c1cc(C(F)F)nn1C1CC1)N1CC2(CN(C3CCOCC3)C2)C1	100 to 250 nM
Cn1nc(C(F)(F)F)cc1S(=O)(=O)N1CC2(CCN(C3CCOCC3)C2)C1	< 100 nM
Cc1nc(C(F)(F)F)ccc1S(=O)(=O)N1CC2(CN(CCOC(C)(C)C)C2)C1	< 100 nM
Cc1cc(OC(F)(F)F)ccc1S(=O)(=O)N1CC2(CCN(C3CCOCC3)C2)C1	< 100 nM

Provide IC50 for all items below, preserving their order.
1. O=S(=O)(c1ccc(OC(F)(F)F)cc1F)N1CC2(CN(C3CCOCC3)C2)C1
2. O=S(=O)(c1ccc(C(F)(F)F)nc1C(F)(F)F)N1CC2(CN(CC3CCOCC3)C2)C1
3. O=S(=O)(c1cnc(C2CC2)s1)N1CCOC2(CCN(C3CC4(COC4)C3)C2)C1 (stereo not shown)
4. COC(C)(C)CN1CCC2(CC1)CN(S(=O)(=O)c1ccc(OC(F)F)cc1)CCO2
5. O=S(=O)(c1ccc(OC(F)F)cc1)N1CCO[C@]2(CCN(C3CCOCC3)C2)C1 (single isomer, unassigned)

1. 250 to 4000 nM
2. < 100 nM
3. 100 to 250 nM
4. 100 to 250 nM
5. 100 to 250 nM

###

- target: EBP (Homo sapiens, UniProt Q15125)
- Construct: HEK293T cells were utilized as the source of EBP enzyme; endogenous in cells
- Sequence (Q15125 whole entry): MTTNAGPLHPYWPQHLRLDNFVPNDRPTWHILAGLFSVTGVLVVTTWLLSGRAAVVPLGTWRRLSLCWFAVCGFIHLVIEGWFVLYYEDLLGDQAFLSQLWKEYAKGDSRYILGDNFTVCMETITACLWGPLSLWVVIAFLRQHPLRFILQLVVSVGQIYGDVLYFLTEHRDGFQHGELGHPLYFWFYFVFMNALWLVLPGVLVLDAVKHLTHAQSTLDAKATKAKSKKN
- protocol text: EBP Functional Assay (EBP immunoaffinity LC-MS assay)
- condition description: EBP enzyme from HEK293T cells; 30 min with inhibitor, then zymosterol-d5, 37° C., 4 h; percent conversion to dehydrolathosterol-d5 by LC-APCI MRM MS
Give measured IC50 for each item. Keep answers brief.

// worked examples, IC50 included
compound	IC50
Cc1ccc(S(=O)(=O)N2CC3(CN(C4CCOCC4)C3)C2)c(C(F)(F)F)n1	100 to 250 nM
O=S(=O)(c1c(F)cc(OC(F)F)cc1F)N1CC2(CN(CC3CCOCC3)C2)C1	250 to 4000 nM

# batch size: 2; output IC50 per entry
1. Cc1nc(C(F)(F)F)ccc1S(=O)(=O)N1CC2(CN(CC3CCOC3)C2)C1 (single isomer, unassigned) [Example 161]
2. COCCN1CCC2(CC1)CN(S(=O)(=O)c1ccc(OC(F)F)cc1)CCO2

250 to 4000 nM
250 to 4000 nM

###

- target: EBP (Homo sapiens, UniProt Q15125)
- Construct: HEK293T cells were utilized as the source of EBP enzyme; endogenous in cells
- protocol text: EBP Functional Assay (EBP immunoaffinity LC-MS assay)
- condition description: EBP enzyme from HEK293T cells; 30 min with inhibitor, then zymosterol-d5, 37° C., 4 h; percent conversion to dehydrolathosterol-d5 by LC-APCI MRM MS
pIC50: −log10 of the molar value.
endpoint: pIC50

Observe how each entry below is paired with its result.
molecule	pIC50
Cn1nc(C(F)(F)F)cc1S(=O)(=O)N1CC2(CN(CC3CCOC3)C2)C1 (racemic)	> 7.00
Cc1nc(C(F)(F)F)ccc1S(=O)(=O)N1CC2(CN(C3CCOCC3)C2)C1	> 7.00

Quick one: pIC50 for "Cc1nc(C(F)(F)F)ccc1S(=O)(=O)N1CC2(CN(CC3(C)COC3)C2)C1" ?
> 7.00

###

- target: EBP (Homo sapiens)
- Construct: HEK293T cells were utilized as the source of EBP enzyme; endogenous in cells
- protocol text: EBP Functional Assay (EBP immunoaffinity LC-MS assay)
- condition description: EBP enzyme from HEK293T cells; 30 min with inhibitor, then zymosterol-d5, 37° C., 4 h; percent conversion to dehydrolathosterol-d5 by LC-APCI MRM MS
pIC50: −log10 of the molar value.
endpoint: pIC50

Here are 4 compounds together with their reported answers.
chemical smiles	result
O=S(=O)(c1cccnc1C(F)(F)F)N1CC2(CN(C3CCOCC3)C2)C1	5.40 to 6.60
Cc1ncccc1S(=O)(=O)N1CC2(CN(C3CCOCC3)C2)C1	5.40 to 6.60
O=S(=O)(c1cnc(C(F)(F)F)cc1C1CC1)N1CC2(CN(C3CC4(COC4)C3)C2)C1	5.40 to 6.60
O=S(=O)(c1ccc(C(F)(F)F)nc1Cl)N1CC2(CN(C3CCOCC3)C2)C1	> 7.00

State the recorded pIC50 for this entry: "Cc1nc(C(F)(F)F)ccc1S(=O)(=O)N1CC2(CN(CC34CCOC(C)(C3)C4)C2)C1"
> 7.00
